// provenance: PubChem BioAssay

# assay_method_text: viability loss in pontine glioma line – cell-based, SU-DIPG-XIII, MIPE5.0, CellTiter-Glo, qHTS, dose response (AID 1347064);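 for AC50: cells exposed to compound for 48 hours before the viability read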
# measurement_conditions: CellTiter-Glo ATP luminescence
Records with an inconclusive call do not appear. Active and inactive are the calls of the source. No cut-off is given here; in the data, nearly all actives have AC50 up to about 23 µM.
reported_property: AC50

Solved cases (10 shown):
molecule	AC50
CCn1cc(-c2ccnc3[nH]c(-c4cccc(CN(C)C)c4)cc23)c(-c2ccc(NC(=O)N(C)C)cc2)n1	8.33 µM (active)
Cc1[nH]c2ccc(F)cc2c1-c1nc2c3cccnc3c3ncccc3c2[nH]1	1.35 µM (active)
CCCN1CCN(c2ccc(C(=O)NC3(C(=O)NCC#N)CCCCC3)cc2)CC1	inactive
COc1ccc(S(=O)(=O)Nc2cccnc2Nc2ccc(O)cc2)cc1	0.468 µM (active)
CC(C)c1ccc(Cn2ccc3c4c(N)nc(NC5CC5)nc4ccc32)cc1	6.61 µM (active)
O=C(Nc1ccc(F)c(C(F)(F)F)c1)Nc1nnc(-c2ccncc2)s1	inactive
Fc1ccc(-c2nc(-c3ccccc3F)[nH]c2-c2ccncc2)cc1	inactive
Nc1ncnc2c1c(COc1cccc(Cl)c1)nn2C1CCOCC1	inactive
C=CCNC1=C2CC(C)CC(OC)C(O)C(C)/C=C(\C)C(OC(N)=O)C(OC)/C=C/C=C(\C)C(=O)NC(=CC1=O)C2=O (centres undefined)	1.66 µM (active)
CN(Cc1ccccc1)C(=O)c1ccc(S(=O)(=O)Nc2ccccc2)cc1	inactive

For the molecule "Cc1cc(Nc2cc(CN3CCOCC3)c3nc(C)c(Cc4ccc(Cl)cc4F)n3n2)n[nH]1" , report AC50.
10.5 µM (active)

For the molecule "c1ccc(-c2nn3c(c2-c2ccnc4cc(OCCN5CCOCC5)ccc24)CCC3)nc1" , report AC50.
inactive

For the molecule "CCN1CCN(Cc2ccc(NC(=O)c3ccc(C)c(/C=C/c4cnc5[nH]ccc5c4OC)c3)cc2C(F)(F)F)CC1" , report AC50.
2.35 µM (active)

For the molecule "C/C(=N\NC(=O)c1cccc(S(=O)(=O)N2CCOCC2)c1)c1cc(Cl)ccc1O" , report AC50.
9.34 µM (active)

For the molecule "CCCCCCCOc1ccc(CCC(N)(CO)CO)cc1C(F)(F)F" , report AC50.
8.33 µM (active)

For the molecule "C[C@H]1CN(C2COC2)CCN1c1ccc(Nc2cc(-c3ccnc(N4CCn5c(cc6c5CC(C)(C)C6)C4=O)c3CO)cn(C)c2=O)nc1" , report AC50.
inactive

For the molecule "COc1ccc2c(Oc3ccc(NC(=O)c4c(C)n(CC(C)(C)O)n(-c5ccccc5)c4=O)cc3F)ccnc2c1" , report AC50.
inactive

For the molecule CC1Oc2cc(cnc2N)-c2c(nn(C)c2C#N)CN(C)C(=O)c2ccc(F)cc21 (centres undefined) , report AC50.
6.61 µM (active)

For the molecule "Cn1c(=O)n(-c2ccc(C(C)(C)C#N)cc2)c2c3cc(-c4cnc5ccccc5c4)ccc3ncc21" , report AC50.
0.855 µM (active)
